// data source = the kinase profiling compilation of Christmann-Franck et al. (2016)

Entries and their kinase still bound, per cent of control
- assayed_target: ACVRL1 (human) (UniProt P37023)
- Sequence (P37023 whole entry, looked up): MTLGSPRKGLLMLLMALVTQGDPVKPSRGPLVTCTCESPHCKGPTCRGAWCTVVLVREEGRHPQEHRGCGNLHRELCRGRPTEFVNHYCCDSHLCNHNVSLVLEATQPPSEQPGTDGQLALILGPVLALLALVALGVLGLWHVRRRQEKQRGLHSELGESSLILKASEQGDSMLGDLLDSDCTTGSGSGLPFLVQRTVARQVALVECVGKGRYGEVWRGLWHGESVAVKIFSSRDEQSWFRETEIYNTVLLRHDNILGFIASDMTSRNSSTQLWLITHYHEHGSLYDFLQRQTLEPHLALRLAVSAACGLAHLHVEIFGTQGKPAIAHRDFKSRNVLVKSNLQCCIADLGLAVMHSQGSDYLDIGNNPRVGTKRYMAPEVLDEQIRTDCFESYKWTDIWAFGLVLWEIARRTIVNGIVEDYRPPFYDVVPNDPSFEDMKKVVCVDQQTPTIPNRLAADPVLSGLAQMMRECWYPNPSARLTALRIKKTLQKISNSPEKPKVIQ
- assay_overview: KINOMEscan competition binding
- run_conditions: compound 10.0 µM
The figure you give is taken to be in %; do not add the unit.

Observe how each entry below is paired with its result.
1) CCN(CCO)CCCOc1ccc2c(Nc3cc(CC(=O)Nc4cccc(F)c4)[nH]n3)ncnc2c1 : 97
2) CNC(=O)Nc1ccc(-c2nc(N3CC4CCC(C3)O4)c3cnn(C4CCC5(CC4)OCCO5)c3n2)cc1 : 100
3) COc1cc(C)c(Sc2cnc(NC(=O)c3ccc(CNC(C)C(C)C)cc3)s2)cc1C(=O)N1CCN(C(C)=O)CC1 (stereo not drawn) : 100
4) Cc1cn(-c2cc(C(=O)Nc3ccc(C)c(NC(=O)c4ccno4)c3)cc(C(F)(F)F)c2)cn1 : 100

Per the record, N#C/C(=C1/Nc2ccccc2S1)c1ccnc(NCCc2cccnc2)n1 has kinase still bound, per cent of control of 100

Per the record, N#Cc1cc(-c2ccnc(Nc3ccc(-n4cnc(-c5cccnc5)n4)cc3)n2)cc(N2CCOCC2)c1 has kinase still bound, per cent of control of 100

Per the record, CCc1nc(-c2cccc(C)c2)c(-c2ccnc(NC(=O)c3ccccc3)c2)s1 has kinase still bound, per cent of control of 85

Per the record, COc1ccc(N(C(=O)Oc2cc(C(=O)Nc3cccc(C(F)(F)F)c3)ccc2C)c2ccnc(Nc3ccc(N4CCN(C)CC4)cc3)n2)c(OC)c1 has kinase still bound, per cent of control of 100
